assay: Uncoupling activity in Wistar rat mitochondria assessed as increase in oxygen consumption by mitochondrial respiration assay relative to 10 uM dinitrophenol; type: ADME
readout_name: Uncoupling concentration

given_smiles=COC(=O)c1sc2c([N+](=O)[O-])c(O)c(O)cc2c1Cl data_value="> 10 µM"
given_smiles=CCCCOC(=O)c1sc2c([N+](=O)[O-])c(O)c(O)cc2c1Cl data_value="> 2.5 µM"
given_smiles=CCCOC(=O)c1sc2c([N+](=O)[O-])c(O)c(O)cc2c1Cl data_value="> 5 µM"
given_smiles=O=C(OCc1ccccc1)c1sc2c([N+](=O)[O-])c(O)c(O)cc2c1Cl data_value="> 10 µM"
given_smiles=O=C(O)c1sc2c([N+](=O)[O-])c(O)c(O)cc2c1Cl data_value="> 50 µM"
given_smiles=CCCC(=O)OCOC(=O)c1sc2c([N+](=O)[O-])c(O)c(O)cc2c1Cl data_value="> 50 µM"

---

test: Distribution coefficient, log D at pH 7.4 by HPLC analysis; format: physicochemical; conditions: octanol/water, read-out: logD
# if value of logD reaches 2, tag yes; if it stays below, tag no

molecule=CC(C)C(=O)OCOC(=O)c1sc2c([N+](=O)[O-])c(O)c(O)cc2c1Cl discrete_label=yes
molecule=CC(C)OC(=O)c1sc2c([N+](=O)[O-])c(O)c(O)cc2c1Cl discrete_label=no
molecule=O=C(O)c1sc2c([N+](=O)[O-])c(O)c(O)cc2c1Cl discrete_label=no
molecule="CC(OC(=O)c1sc2c([N+](=O)[O-])c(O)c(O)cc2c1Cl)OC(=O)C(C)C (configuration not stated)" discrete_label=yes
molecule="CCCC(=O)OC(C)OC(=O)c1sc2c([N+](=O)[O-])c(O)c(O)cc2c1Cl (configuration not stated)" discrete_label=yes
molecule=COC(=O)c1sc2c([N+](=O)[O-])c(O)c(O)cc2c1Cl discrete_label=no
molecule=CCCOC(=O)c1sc2c([N+](=O)[O-])c(O)c(O)cc2c1Cl discrete_label=yes

---

experiment: Aqueous solubility in phosphate buffer at pH 7.4 by HPLC analysis; format: physicochemical
Catalogue of solubility values
readout_name: solubility (µg/mL)

compound=CCCCOC(=O)c1sc2c([N+](=O)[O-])c(O)c(O)cc2c1Cl readout_name=solubility relational_operator== data_value=3.2
compound="CC(C)C(N)C(=O)OCOC(=O)c1sc2c([N+](=O)[O-])c(O)c(O)cc2c1Cl (stereo not given)" readout_name=solubility relational_operator== data_value=10
compound=CCCOC(=O)c1sc2c([N+](=O)[O-])c(O)c(O)cc2c1Cl readout_name=solubility relational_operator== data_value=10.8
compound="CCCC(=O)OC(C)OC(=O)c1sc2c([N+](=O)[O-])c(O)c(O)cc2c1Cl (stereo not given)" readout_name=solubility relational_operator== data_value=60.4
compound="CC(OC(=O)c1sc2c([N+](=O)[O-])c(O)c(O)cc2c1Cl)OC(=O)C(C)C (stereo not given)" readout_name=solubility relational_operator== data_value=258
compound=O=C(OCc1ccccc1)c1sc2c([N+](=O)[O-])c(O)c(O)cc2c1Cl readout_name=solubility relational_operator== data_value=6.9
compound=CC(C)OC(=O)c1sc2c([N+](=O)[O-])c(O)c(O)cc2c1Cl readout_name=solubility relational_operator== data_value=18.7
compound=O=C(O)c1sc2c([N+](=O)[O-])c(O)c(O)cc2c1Cl readout_name=solubility relational_operator== data_value=15000
compound=COC(=O)c1sc2c([N+](=O)[O-])c(O)c(O)cc2c1Cl readout_name=solubility relational_operator== data_value=11.4
compound=CC(C)C(=O)OCOC(=O)c1sc2c([N+](=O)[O-])c(O)c(O)cc2c1Cl readout_name=solubility relational_operator=≥ data_value=200
